TEST_TARGET: human TLR9 (Homo sapiens, UniProt Q9NR96)
Sequence (Q9NR96 26-1032): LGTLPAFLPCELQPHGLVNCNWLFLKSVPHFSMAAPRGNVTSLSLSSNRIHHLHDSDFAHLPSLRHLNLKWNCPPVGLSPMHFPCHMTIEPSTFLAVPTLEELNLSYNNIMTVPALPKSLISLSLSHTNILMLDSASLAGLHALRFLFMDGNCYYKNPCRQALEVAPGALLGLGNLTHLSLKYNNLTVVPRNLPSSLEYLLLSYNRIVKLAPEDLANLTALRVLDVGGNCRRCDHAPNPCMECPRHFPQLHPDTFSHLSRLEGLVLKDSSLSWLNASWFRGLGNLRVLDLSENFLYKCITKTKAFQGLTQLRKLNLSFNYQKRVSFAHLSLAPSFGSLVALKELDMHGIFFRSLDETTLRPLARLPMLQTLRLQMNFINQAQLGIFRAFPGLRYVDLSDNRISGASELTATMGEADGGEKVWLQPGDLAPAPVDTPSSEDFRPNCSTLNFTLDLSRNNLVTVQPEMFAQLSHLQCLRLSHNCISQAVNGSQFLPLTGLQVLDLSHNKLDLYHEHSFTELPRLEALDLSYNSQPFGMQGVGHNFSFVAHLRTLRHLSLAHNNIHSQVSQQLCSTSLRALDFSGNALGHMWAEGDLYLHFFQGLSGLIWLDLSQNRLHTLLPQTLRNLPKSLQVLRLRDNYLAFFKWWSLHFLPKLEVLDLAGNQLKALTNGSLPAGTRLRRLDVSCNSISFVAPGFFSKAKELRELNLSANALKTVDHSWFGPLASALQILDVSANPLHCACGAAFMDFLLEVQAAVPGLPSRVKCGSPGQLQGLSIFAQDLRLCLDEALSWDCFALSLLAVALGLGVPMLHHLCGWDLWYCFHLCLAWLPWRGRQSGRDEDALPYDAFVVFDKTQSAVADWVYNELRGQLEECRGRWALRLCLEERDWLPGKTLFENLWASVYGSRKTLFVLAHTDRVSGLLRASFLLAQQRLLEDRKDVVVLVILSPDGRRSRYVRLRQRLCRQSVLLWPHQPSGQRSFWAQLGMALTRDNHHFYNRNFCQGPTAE
MEASUREMENT_PROTOCOL: TLR9 inhibition reporter assay (HEK-Blue SEAP)
STUDY_CONDITIONS: HEK-Blue cells overexpressing human TLR9, ODN2006 5 nM, 22 hour incubation
pIC50: −log10 of the molar value.
ASSAY_METRIC: pIC50

{"COMPOUND": "CCC(CC)CN1CCC[C@@H](n2c(=O)[nH]c3cc(-c4cc(OC)c5ncnn5c4)c(C(F)(F)F)cc32)C1 [Example 117]", "pIC50": 4.93}
{"COMPOUND": "COc1cc(-c2cc3[nH]c(=O)n([C@H]4CC[C@@H](NC5CCC5)CC4)c3cc2C)cn2ncnc12 [Example 58]", "pIC50": 5.38}
{"COMPOUND": "CCCN1CCC(n2c(=O)[nH]c3cc(-c4cc(C)c5ncnn5c4)c(C)cc32)CC1 [Example 7]", "pIC50": 5.88}

1 = Cc1c(-c2cc3[nH]c(=O)n([C@H]4CC[C@@H](NC5COC5)CC4)c3cc2C(C)C)cn2ncnc2c1C [Example 188]
2 = CCN1CCC(n2c(=O)[nH]c3cc(-c4cc(C)c5ncnn5c4)cc(C)c32)CC1 [Example 108]
3 = CCCN[C@H]1CC[C@@H](n2c(=O)[nH]c3cc(-c4cc(OC)c5ncnn5c4)c(C(C)C)cc32)CC1 [Example 195]
Order the records by pIC50, with each subsequent value no larger than the one before. Output spec: a listing of the labels in the requested order.
2, 3, 1
(2: 5.93, 3: 4.86, 1: 4.65)

----------
TEST_TARGET: UniProtKB Q9NR96
MEASUREMENT_PROTOCOL: TLR9 inhibition reporter assay (HEK-Blue SEAP)
STUDY_CONDITIONS: HEK-Blue cells overexpressing human TLR9, ODN2006 5 nM, 22 hour incubation
ASSAY_METRIC: IC50 (µM)

P = COc1cc(-c2cc3[nH]c(=O)n([C@@H]4CCCN(CC(C)C)C4)c3cc2C)cn2ncnc12
Q = COCCN1CCC(n2c(=O)[nH]c3cc(-c4cc(OC)c5ncnn5c4)c(C(C)C)cc32)CC1
R = CCC(CC)CN1CCC[C@@H](n2c(=O)[nH]c3cc(-c4cc(OC)c5ncnn5c4)c(C)cc32)C1
# order the molecules above by IC50, highest value first Output spec: a listing of the labels in the requested order.
Q, R, P

----------
TEST_TARGET: human TLR8 (Homo sapiens, UniProt Q9NR97)
Sequence (Q9NR97 27-1041): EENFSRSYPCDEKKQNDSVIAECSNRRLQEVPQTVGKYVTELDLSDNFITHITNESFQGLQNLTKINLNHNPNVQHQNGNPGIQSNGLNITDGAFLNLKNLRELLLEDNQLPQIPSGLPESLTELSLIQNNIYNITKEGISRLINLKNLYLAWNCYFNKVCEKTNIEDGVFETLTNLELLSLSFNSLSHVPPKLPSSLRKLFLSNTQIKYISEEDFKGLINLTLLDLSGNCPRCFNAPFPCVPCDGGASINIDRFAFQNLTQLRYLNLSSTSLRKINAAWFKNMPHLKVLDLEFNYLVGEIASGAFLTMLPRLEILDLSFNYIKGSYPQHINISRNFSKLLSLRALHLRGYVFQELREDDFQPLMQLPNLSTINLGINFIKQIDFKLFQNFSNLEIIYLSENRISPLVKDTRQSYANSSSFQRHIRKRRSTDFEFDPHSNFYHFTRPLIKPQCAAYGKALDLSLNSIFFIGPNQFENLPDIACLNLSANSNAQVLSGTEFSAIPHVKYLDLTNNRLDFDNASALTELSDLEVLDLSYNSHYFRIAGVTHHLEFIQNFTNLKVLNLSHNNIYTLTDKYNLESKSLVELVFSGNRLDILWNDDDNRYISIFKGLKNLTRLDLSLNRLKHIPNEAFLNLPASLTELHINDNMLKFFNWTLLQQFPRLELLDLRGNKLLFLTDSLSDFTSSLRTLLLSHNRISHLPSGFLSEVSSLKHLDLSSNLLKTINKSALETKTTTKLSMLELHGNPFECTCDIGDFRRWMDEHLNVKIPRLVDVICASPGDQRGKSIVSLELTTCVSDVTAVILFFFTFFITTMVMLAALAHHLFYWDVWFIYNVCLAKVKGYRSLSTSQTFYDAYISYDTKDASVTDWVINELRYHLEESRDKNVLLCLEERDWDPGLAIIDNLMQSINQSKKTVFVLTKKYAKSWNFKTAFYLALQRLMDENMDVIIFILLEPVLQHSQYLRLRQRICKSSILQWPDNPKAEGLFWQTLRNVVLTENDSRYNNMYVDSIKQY
MEASUREMENT_PROTOCOL: TLR8 inhibition reporter assay (HEK-Blue SEAP)
STUDY_CONDITIONS: HEK-Blue cells overexpressing human TLR8, R848 15.9 μM, 22 hour incubation
ASSAY_METRIC: IC50 (nM)

{"COMPOUND": "CCc1cc2c(cc1-c1cc(OC)c3ncnn3c1)[nH]c(=O)n2[C@@H]1CCCN(CCC(C)(C)C)C1", "UNIT_SYMBOL": "nM", "IC50": 3.77}
{"COMPOUND": "COc1cc(-c2cc3[nH]c(=O)n([C@@H]4CCCN(CC5CCC5)C4)c3cc2C(C)C)cn2ncnc12", "UNIT_SYMBOL": "nM", "IC50": 3.92}
{"COMPOUND": "COc1c(C)c(-c2cc3[nH]c(=O)n(C4CCC(N5CC(OC)C5)CC4)c3cc2C(C)C)cn2ncnc12 (stereo not shown) [Example 265]", "UNIT_SYMBOL": "nM", "IC50": 2.72}
{"COMPOUND": "Cc1c(-c2cc3[nH]c(=O)n([C@H]4CC[C@@H](NCC(C)(C)C)CC4)c3cc2C(C)C)cn2ncnc2c1C", "UNIT_SYMBOL": "nM", "IC50": 0.08}

a = CCCN[C@H]1CC[C@@H](n2c(=O)[nH]c3cc(-c4cc(OC)c5ncnn5c4)c(C(C)C)cc32)CC1
b = COc1cc(-c2cc3[nH]c(=O)n([C@H]4CC[C@H](N(C)C)CC4)c3cc2C(C)C)cn2ncnc12
Compare IC50: is it lower for a or for b ? Please respond with the label that marks your chosen entry.
a

----------
TEST_TARGET: human TLR8 (Homo sapiens)
MEASUREMENT_PROTOCOL: TLR8 inhibition reporter assay (HEK-Blue SEAP)
STUDY_CONDITIONS: HEK-Blue cells overexpressing human TLR8, R848 15.9 μM, 22 hour incubation
Counter-ions that a name gives are not always drawn.
ASSAY_METRIC: IC50 (nM)

These recorded examples may help you get a feel for the data.
{"COMPOUND": "COc1cc(-c2cc3[nH]c(=O)n(C4CCN(C5COC5)CC4)c3cc2C(C)C)cn2ncnc12 [Example 157]", "IC50 / nM": 5.42}
{"COMPOUND": "Cc1c(-c2cc3[nH]c(=O)n(C4CCC(N5CCC6(CC5)COC6)CC4)c3cc2C(C)C)cn2ncnc2c1C (single isomer, unassigned) [Example 282]", "IC50 / nM": 0.51}
{"COMPOUND": "COc1cc(-c2cc3[nH]c(=O)n([C@H]4CC[C@@H](NC(C)C)CC4)c3cc2C(C)C)cn2ncnc12 [Example 192]", "IC50 / nM": 0.44}

1 = Cc1cc2c(cc1-c1cc(C)c3ncnn3c1)[nH]c(=O)n2[C@H]1CC[C@@H](N)CC1 [1 EE]
2 = COc1cc(-c2cc3[nH]c(=O)n([C@H]4CC[C@@H](NCC5CC5)CC4)c3cc2C)cn2ncnc12 [Example 60]
3 = COC[C@@H]1CCN(C2CCC(n3c(=O)[nH]c4cc(-c5cc(OC)c6ncnn6c5)c(C(C)C)cc43)CC2)C1 (single isomer, unassigned) [Example 290]
4 = CCc1cc2c(cc1-c1cc(OC)c3ncnn3c1)[nH]c(=O)n2[C@@H]1CCCN(C2COC2)C1 [Example 173]
5 = COc1cc(-c2cc3[nH]c(=O)n(C4CCNCC4)c3cc2C)cn2ncnc12 [1 E, TFA]
Rank the items in ascending order with respect to IC50. Output spec: a listing of the labels in the requested order.
3, 2, 4, 1, 5
(3: 0.53 nM, 2: 5.74 nM, 4: 18 nM, 1: 31.8 nM, 5: 225 nM)

I = COc1cc(-c2cc3[nH]c(=O)n(C4CCC(N5CCC(S(C)(=O)=O)C5)CC4)c3cc2C(C)C)cn2ncnc12 (single isomer, unassigned) [Example 289]
II = COc1cc(-c2cc3[nH]c(=O)n(C4CCC(N5C[C@@H](F)[C@@H](F)C5)CC4)c3cc2C(C)C)cn2ncnc12 (single isomer, unassigned) [Example 293]
Compare IC50: is it lower for I or for II ? Please respond with the label that marks your chosen entry.
I
(I: 4.44 nM, II: 7.74 nM)

a = CCc1cc2c(cc1-c1cc(OC)c3ncnn3c1)[nH]c(=O)n2[C@@H]1CCCN(CC)C1 [Example 171]
b = COc1cc(-c2cc3[nH]c(=O)n([C@H]4CC[C@@H](NC5CCC5)CC4)c3cc2C)cn2ncnc12 [Example 58]
Compare IC50: is it lower for a or for b ? Please respond with the label that marks your chosen entry.
a
(a: 3.03 nM, b: 5.2 nM)
